Test: BET inhibitor-based combinations targeting novel dependencies in MECOM-rearranged (r) AML: AML-191 cell line (AID 2202236; note: nearly all actives have a fitted effect of over 35% in size)
Conditions: AML-191 viability, CellTiter-Glo luminescence, 48 h; series mostly up to 46 µM
Records with an inconclusive call do not appear. Activity calls are given as the source filed them. Calls come from the whole dose curve; as a rule, active = well fitted inhibition curve with a large enough effect; inconclusive = small, poorly fitted or top-dose-only effect; inactive = flat fitted curve, though single readings scatter. Non-standard residues stand in square brackets, D forms with d. Residues, ends and D or L forms follow the SMILES beside them.
Please reply with one of these outcomes: t for active, f for inactive

IN: Per the assay record, what outcome was assigned to Cc1ccc([C@@H]2O[C@H](CO)[C@@H](O)[C@H](O)[C@H]2O)cc1Cc1ccc(-c2ccc(F)cc2)s1 ?
OUT: t

IN: Per the assay record, what outcome was assigned to CCS(=O)(=O)Nc1ccc2[nH]c(O)c(C(=Nc3ccc(CN4CCCCC4)cc3)c3ccccc3)c2c1 ?
OUT: t

IN: Per the assay record, what outcome was assigned to COc1cc(Nc2cnc(C#N)c(O[C@H](C)CN(C)C)n2)ncc1-c1cnn(C)c1 ?
OUT: t

IN: Per the assay record, what outcome was assigned to CC(C)C[C@@H]1NC(=O)[C@@H](C(C)C)NC(=O)[C@@H]2CCCN2C(=O)[C@@H](CC(=O)O)NC(=O)[C@@H](Cc2c[nH]c3ccccc23)NC1=O (cyclo(L[dW][dD]P[dV])) ?
OUT: f

IN: Per the assay record, what outcome was assigned to CO[C@@]12[C@H](COC(N)=O)C3=C(C(=O)C(C)=C(N)C3=O)N1C[C@@H]1N[C@@H]12 ?
OUT: f

IN: Per the assay record, what outcome was assigned to O=C(NCc1ccc(S(=O)(=O)c2cccc(C(F)(F)F)c2)cc1)c1cnc2[nH]ncc2c1 ?
OUT: t

IN: Per the assay record, what outcome was assigned to CCN1CCN(Cc2ccc(-c3cc4c(N[C@H](C)c5ccccc5)ncnc4[nH]3)cc2)CC1 ?
OUT: t

IN: Per the assay record, what outcome was assigned to O=C(CCc1ccc(O)cc1)c1c(O)cc(O)cc1O[C@@H]1O[C@H](CO)[C@@H](O)[C@H](O)[C@H]1O ?
OUT: f

IN: Per the assay record, what outcome was assigned to COc1cc(-c2cn(C)c(=O)c3cnccc23)cc(OC)c1CN(C)C ?
OUT: f

IN: Per the assay record, what outcome was assigned to CC(C)(C)C(=O)OCOP(=O)(COCCn1cnc2c(N)ncnc21)OCOC(=O)C(C)(C)C ?
OUT: t

IN: Per the assay record, what outcome was assigned to N#Cc1ccc(C(c2ccc(C#N)cc2)n2cncn2)cc1 ?
OUT: f

IN: Per the assay record, what outcome was assigned to CC(=O)N1c2ccc(-c3ccc(C(=O)O)cc3)cc2[C@H](Nc2ccc(Cl)cc2)C[C@@H]1C ?
OUT: t

IN: Per the assay record, what outcome was assigned to CC(=O)N[C@H]1CSSC[C@@H](C(N)=O)NC(=O)[C@H](C(C)C)NC(=O)[C@H](C)NC(=O)[C@H](Cc2cnc[nH]2)NC1=O ?
OUT: f

IN: Per the assay record, what outcome was assigned to COc1cc([C@@H](CC(=O)O)c2ccc(C)c(CN3C[C@@H](C)Oc4ccccc4S3(=O)=O)c2)cc2nnn(C)c12 ?
OUT: f

IN: Per the assay record, what outcome was assigned to O=C(/C=C/c1cccnc1)NCCCCC1CCN(C(=O)c2ccccc2)CC1 ?
OUT: t

IN: Per the assay record, what outcome was assigned to O=C(Nc1ncc(SCCN2CCCC2)s1)[C@]1(c2ccc(S(=O)(=O)C3CC3)cc2)C[C@H]1C1CCCCC1 ?
OUT: t

IN: Per the assay record, what outcome was assigned to C=CC(=O)N1CC[C@@H](Oc2nc(Nc3ccc(N4CCC(N5CCN(C)CC5)CC4)cc3)c(C(N)=O)nc2CC)C1 ?
OUT: t

IN: Per the assay record, what outcome was assigned to Cc1cnc(Nc2ccc(CN3CCOCC3)cc2)nc1Nc1cccc(S(=O)(=O)NC(C)(C)C)c1 ?
OUT: t

IN: Per the assay record, what outcome was assigned to O=[N+]([O-])c1ccc(O)c2ncccc12 ?
OUT: t

IN: Per the assay record, what outcome was assigned to CCC[C@@H]1C[C@@H](C(=O)N[C@@H]([C@H]2O[C@H](SC)[C@H](O)[C@@H](O)[C@H]2O)[C@H](C)Cl)N(C)C1 ?
OUT: f

IN: Per the assay record, what outcome was assigned to COC(=O)[C@H](CCCN=C(N)N)NS(=O)(=O)c1ccc(C)cc1 ?
OUT: f

IN: Per the assay record, what outcome was assigned to CCCNC(=O)c1cn2ncnc(Nc3cc(C(=O)NC4CC4)ccc3C)c2c1C ?
OUT: f

IN: Per the assay record, what outcome was assigned to CS(=O)(=O)Nc1cc2occ(NC=O)c(=O)c2cc1Oc1ccccc1 ?
OUT: f

IN: Per the assay record, what outcome was assigned to C[C@@H](Oc1ccc2[nH]nc(/C=C/c3cnn(CCO)c3)c2c1)c1c(Cl)cncc1Cl ?
OUT: t

IN: Per the assay record, what outcome was assigned to Fc1cccc(-n2cnc3c(NCc4nc5c(F)c(F)ccc5[nH]4)nc(N4CCOCC4)nc32)c1 ?
OUT: t

IN: Per the assay record, what outcome was assigned to O=C1OC(COc2ccccc2[N+](=O)[O-])CC1Cc1ccccc1 (centres undefined) ?
OUT: f

IN: Per the assay record, what outcome was assigned to CC(C)(O)CC[C@@H](O)[C@](C)(O)[C@H]1CC[C@@]2(O)C3=CC(=O)[C@@H]4C[C@@H](O)[C@@H](O)C[C@]4(C)[C@H]3CC[C@]12C ?
OUT: f

IN: Per the assay record, what outcome was assigned to COC(=O)C1=C(C)NC(c2ncc(F)cc2F)=N[C@@H]1c1ccc(F)cc1Cl ?
OUT: f

IN: Per the assay record, what outcome was assigned to COCc1c(-c2ccc(NC(=O)Nc3cc(C(F)(F)F)ccc3F)c(F)c2)c2c(N)ncnn2c1CN1CCOCC1 ?
OUT: t

IN: Per the assay record, what outcome was assigned to Cc1ccc(NC(=O)c2ccc3c(c2)OCCO3)cc1NC(=O)c1ccc2nc(OCCN3CCCC3)ccc2c1 ?
OUT: t

IN: Per the assay record, what outcome was assigned to CN1CCN(c2ccc3nc(-c4cc(C(C)(C)C)c(OCCCC(=O)NCCCN=[N+]=[N-])c(C(C)(C)C)c4)[nH]c3c2)CC1 ?
OUT: t

IN: Per the assay record, what outcome was assigned to Cc1ccc(-c2ncn(-c3ccc(Nc4nccc(-c5cccc(N6CCOCC6)c5)n4)cc3)n2)cn1 ?
OUT: t

IN: Per the assay record, what outcome was assigned to COc1cc(Nc2ncc(F)c(Nc3ccc4c(n3)N(COP(=O)(O)O)C(=O)C(C)(C)O4)n2)cc(OC)c1OC ?
OUT: t

IN: Per the assay record, what outcome was assigned to COc1ccc2[nH]c3c(c2c1)CCN[C@]31CS[C@@H]2c3c(OC(C)=O)c(C)c4c(c3[C@H](COC1=O)N1[C@@H]2[C@H]2c3c(cc(C)c(OC)c3O)C[C@@H]([C@@H]1O)N2C)OCO4 ?
OUT: t

This collection of values is drawn from PubChem BioAssay (NCATS).
